Kindly find below pIC50 information for NT-3 growth factor receptor (Homo sapiens, UniProt Q16288) taken from the literature.
pIC50: −log10 of the molar value.

[
  {
    "molecule": "CC(C)c1ccc(OCC(=O)N(Cc2ccn3ncc(C(N)=O)c3c2)C(C)C)cc1",
    "rel": "=",
    "pIC50": 7.86
  },
  {
    "molecule": "COc1ccc(Nc2ccc(Cc3c[nH]c4ncnc(OC)c34)c(F)n2)cn1",
    "rel": ">",
    "pIC50": 8.00
  },
  {
    "molecule": "Fc1ccc(F)c(Cc2ccc3[nH]nc(C#Cc4ccccn4)c3c2)c1",
    "rel": "=",
    "pIC50": 8.10
  },
  {
    "molecule": "C[C@H]1Nc2ccn3ncc(c3n2)C(=O)OCCOc2ccc(F)cc21",
    "rel": "=",
    "pIC50": 9.14
  },
  {
    "molecule": "Fc1cc(F)cc(Sc2ccc3[nH]nc(C#Cc4ccccn4)c3c2)c1",
    "rel": "=",
    "pIC50": 6.95
  },
  {
    "molecule": "C[C@@H](N)COc1ccc(-c2cnc3ccc(N[C@H](C)c4cccc(F)c4)nn23)cc1",
    "rel": ">",
    "pIC50": 8.30
  },
  {
    "molecule": "Fc1cc(F)cc(Oc2ccc3[nH]nc(/C=C/c4ccccn4)c3c2)c1",
    "rel": "=",
    "pIC50": 7.61
  },
  {
    "molecule": "CC(CO)n1cc(C(=O)c2cncc(NC(=O)Cc3ccc(Cl)cc3)c2)c2cnc(N)nc21 (single isomer, unassigned)",
    "rel": "=",
    "pIC50": 7.89
  },
  {
    "molecule": "CN(Cc1ccn2ncc(C(N)=O)c2c1)C(=O)COc1ccc(OC(F)(F)F)cc1",
    "rel": "=",
    "pIC50": 5.86
  },
  {
    "molecule": "CC1Cc2ncc(F)cc2[C@H]2CCCN2c2ccn3ncc(c3n2)C(=O)NN1C1CC1 (single isomer, unassigned)",
    "rel": "=",
    "pIC50": 9.42
  },
  {
    "molecule": "CC(C)(C)n1cc(C(=O)c2cncc(NC(=O)Cn3ccc(C(F)(F)F)n3)c2)c2cncnc21",
    "rel": "=",
    "pIC50": 8.70
  },
  {
    "molecule": "NC(=O)c1cnn2ccc(CN(C(=O)Nc3ccc(OC(F)(F)F)cc3)C3CC3)cc12",
    "rel": "=",
    "pIC50": 8.82
  },
  {
    "molecule": "CC(C)N(Cc1ccn2ncc(C(N)=O)c2c1)C(=O)COc1ccc(C(C)(C)C)cc1",
    "rel": "=",
    "pIC50": 7.82
  },
  {
    "molecule": "Fc1cc(F)cc(Cc2ccc3[nH]nc(/C=C/c4cnccn4)c3c2)c1",
    "rel": "=",
    "pIC50": 8.22
  },
  {
    "molecule": "COc1cc2nccc(Oc3ccc(NC(=O)c4cn(C(C)C)nc(-c5ccc(F)cc5)c4=O)cn3)c2cc1OC",
    "rel": "=",
    "pIC50": 8.10
  },
  {
    "molecule": "Fc1ccc(F)c([C@H]2CCCN2c2ccc3[nH]nc(/C=C/c4ccccn4)c3c2)c1",
    "rel": "=",
    "pIC50": 8.72
  },
  {
    "molecule": "COc1cc(N2C[C@@H](N)CC2=O)ccc1-c1cnc2ccc(N(C)Cc3cccc(F)c3)nn12",
    "rel": ">",
    "pIC50": 8.30
  },
  {
    "molecule": "CNCCOc1ccc(-c2cnc3ccc(N[C@H](C)c4cccc(F)c4)nn23)cc1",
    "rel": ">",
    "pIC50": 8.30
  },
  {
    "molecule": "NC(=O)c1ccc(-c2cc(OC3CCOCC3)c3c(N)n[nH]c3c2)cc1N1CCN(C2CC2)CC1",
    "rel": "=",
    "pIC50": 7.59
  },
  {
    "molecule": "COc1cncnc1N1CCN(c2cc(-c3cc(OC4CCOCC4)c4c(N)n[nH]c4c3)ccc2C(N)=O)CC1",
    "rel": "=",
    "pIC50": 7.63
  },
  {
    "molecule": "Fc1cc(F)cc(-c2ccc3[nH]nc(C#Cc4ccccn4)c3c2)c1",
    "rel": "<",
    "pIC50": 6.00
  },
  {
    "molecule": "C[C@@H](Oc1ccc2ncc(-c3ccc(N4C[C@@H](N)CC4=O)cc3)n2n1)c1cccc(F)c1",
    "rel": ">",
    "pIC50": 8.30
  },
  {
    "molecule": "Cc1cnc2[nH]cc(Cc3cnc(Nc4cc(C5CC5)n[nH]4)nc3)c2c1",
    "rel": "<",
    "pIC50": 6.00
  },
  {
    "molecule": "Fc1cc(F)cc(Cc2ccc3[nH]nc(/C=C/c4ccccn4)c3c2)c1",
    "rel": "=",
    "pIC50": 8.57
  },
  {
    "molecule": "CCC(C)N(Cc1ccn2ncc(C(=O)O)c2c1)C(=O)Nc1ccc(OC(F)(F)F)cc1 (centres unmarked)",
    "rel": "=",
    "pIC50": 8.27
  },
  {
    "molecule": "Fc1cc(F)cc(Cc2ccc3[nH]nc(/C=C/c4cccs4)c3c2)c1",
    "rel": "=",
    "pIC50": 8.29
  },
  {
    "molecule": "CC(Oc1cc(-c2ccc(C(N)=O)c(N3CCN(c4ccccc4)CC3)c2)cc2[nH]nc(N)c12)C(F)(F)F (centres unmarked)",
    "rel": "=",
    "pIC50": 8.76
  },
  {
    "molecule": "C[C@@H](Nc1ccn2ncc(-c3cnn(C)c3)c2n1)c1cc(F)ccc1OCC(F)(F)F",
    "rel": "=",
    "pIC50": 8.21
  },
  {
    "molecule": "Cc1c(C#Cc2cnc3ccc(N4CCOCC4)nn23)cccc1C(=O)Nc1cc(CN2CCN(C)CC2)cc(C(F)(F)F)c1",
    "rel": ">",
    "pIC50": 8.00
  },
  {
    "molecule": "CC(C)N(Cc1ccn2ncc(C(N)=O)c2c1)C(=O)CNc1ccc(OC(F)(F)F)cc1",
    "rel": "=",
    "pIC50": 6.85
  }
]

* * *

// merged dataset of log10 of IC50 values, system = UniProtKB Q16288, multiple refs
test_readout: log10 of IC50 (log10 of the value in µM)

[
  {
    "compound": "CC(CO)n1cc(C(=O)c2cncc(NC(=O)Cc3ccc(C(F)(F)F)cc3)c2)c2cnc(N)nc21 (single isomer, unassigned)",
    "log10 of IC50": -1.96
  },
  {
    "compound": "Fc1ccc(Cc2ccc3[nH]nc(C#Cc4ccccn4)c3c2)cc1F",
    "log10 of IC50": -0.19
  },
  {
    "compound": "CC(=O)N1CCN(c2cc(-c3cc(OC4CCCC4)c4c(N)n[nH]c4c3)ccc2C(N)=O)CC1",
    "log10 of IC50": -0.80
  },
  {
    "compound": "CC(C)N(Cc1ccc2[nH]ccc2c1)C(=O)COc1ccc(OC(F)(F)F)cc1",
    "log10 of IC50": 1.34
  },
  {
    "compound": "O=S(=O)(c1cc(F)cc(F)c1)c1ccc2[nH]nc(/C=C/c3ccccn3)c2n1",
    "log10 of IC50": -2.39
  },
  {
    "compound": "CC(C)N(Cc1ccn2ncc(C(=N)NO)c2c1)C(=O)Nc1ccc(OC(F)(F)F)cc1",
    "log10 of IC50": -2.54
  },
  {
    "compound": "O=C(Nc1ccccc1C(F)(F)F)N(Cc1ccn2nccc2c1)C1CCC1",
    "log10 of IC50": -2.28
  }
]

* * *

Literature pIC50 values, system: NT-3 growth factor receptor (Homo sapiens, UniProt Q16288).
pIC50: −log10 of the molar value.

[
  {
    "compound": "Cc1cnc2[nH]cc(Cc3cnc(Nc4cc(C(C)(C)C)n[nH]4)nc3)c2c1",
    "rel": ">",
    "pIC50": 6.00
  },
  {
    "compound": "C[C@H]1Nc2ccn3ncc(c3n2)C(=O)OCC(F)(F)Oc2ccc(F)cc21",
    "rel": "=",
    "pIC50": 9.12
  },
  {
    "compound": "CC(Oc1cc(-c2ccc(C(N)=O)c(N3CCN(c4cccnc4)CC3)c2)cc2[nH]nc(N)c12)C(F)(F)F (stereo not shown)",
    "rel": "=",
    "pIC50": 8.54
  },
  {
    "compound": "CNC(=O)c1ccc(-c2cc(OC3CCOCC3)c3c(N)n[nH]c3c2)cc1N1CCN(CC(F)(F)F)CC1",
    "rel": "=",
    "pIC50": 7.28
  },
  {
    "compound": "CCCOc1ccc(Nc2ncc(Cc3c[nH]c4ncc(C)cc34)cn2)cc1",
    "rel": "<",
    "pIC50": 6.00
  },
  {
    "compound": "CC(C)N(Cc1ccn2ncc(C(N)=O)c2c1)C(=S)Nc1ccc(OC(F)(F)F)cc1",
    "rel": "=",
    "pIC50": 8.18
  },
  {
    "compound": "C[C@H](CO)n1cc(C(=O)c2cncc(NC(=O)Cc3ccc(Cl)cc3)c2)c2cncnc21",
    "rel": "=",
    "pIC50": 8.05
  },
  {
    "compound": "CC(C)N(Cc1ccc2[nH]ccc2c1)C(=O)Nc1ccc(OC(F)(F)F)cc1",
    "rel": "=",
    "pIC50": 4.26
  },
  {
    "compound": "CC(C)N(Cc1ccn2ncc(C#N)c2c1)C(=O)Nc1ccc(OC(F)(F)F)cc1",
    "rel": "=",
    "pIC50": 8.36
  },
  {
    "compound": "COc1cc2nccc(Oc3ccc(NC(=O)c4nn(C5CC5)cc(-c5ccc(F)cc5)c4=O)nc3)c2cc1OC",
    "rel": "=",
    "pIC50": 8.52
  },
  {
    "compound": "O=C(O)c1cnn2ccc(CN(C(=O)Nc3ccc(OC(F)(F)F)cc3)C3CC3)cc12",
    "rel": "=",
    "pIC50": 8.48
  },
  {
    "compound": "Cc1ccc(F)cc1CC(C)Nc1cc[nH]c(=O)c1-c1nc2cc3c(cc2[nH]1)CN(C)C3=O (stereo not shown)",
    "rel": "=",
    "pIC50": 9.00
  },
  {
    "compound": "Nc1n[nH]c2cc(-c3ccc(C(=O)NC4CC4)c(N4CCN(c5ccccc5)CC4)c3)cc(OC3CCOCC3)c12",
    "rel": "=",
    "pIC50": 8.07
  },
  {
    "compound": "Cc1c(C#Cc2cnc3ccc(N4CCC(N5CCOCC5)CC4)nn23)cccc1C(=O)Nc1cc(Cl)cc(C(F)(F)F)c1",
    "rel": ">",
    "pIC50": 8.00
  }
]
